Source listed as patent US4818753A.

Task for the reader: assign each of the following molecules its reported MFC.
System: Microsporum gypseum (14683)
Procedure Summary: Broth dilution assay, F12
Assay type: cell-based
Condition: Nannizzia gypsea, Table 1, Sabouraud Dextrose Broth pH 5.5, read-out: Minimum Lethal Concentration (C, fungicidal)

Complete the entry with MFC for `CCCc1ccc2nc(N)nc(N)c2c1C`
> 30 mg/L

Complete the entry with MFC for `CCCCc1ccc2nc(N)nc(N)c2c1C`
> 30 mg/L

Complete the entry with MFC for `Cc1c(CCC(C)C)ccc2nc(N)nc(N)c12`
> 30 mg/L

Complete the entry with MFC for Cc1cccc(N(C)C(=S)Oc2ccc3ccccc3c2)c1 [Tolnaftate, reference compound]
10 mg/L

Complete the entry with MFC for `CCCCCc1ccc2nc(N)nc(N)c2c1C`
> 30 mg/L

Complete the entry with MFC for `Cc1cccc2nc(N)nc(N)c12`
> 30 mg/L

Complete the entry with MFC for `CCCCCCc1ccc2nc(N)nc(N)c2c1C`
30 mg/L

---

Test system: Epidermophyton floccosum (15693)
Procedure Summary: Broth dilution assay, F4
Assay type: cell-based
Condition: Table 2, F4, Sabouraud Dextrose Broth pH 5.5, read-out: C Fungicidal
Experimental Readout: MFC (µg/mL)
Give the value in µg/mL but do not write µg/mL after it.

Complete the entry with MFC for `CCCCCCCc1ccc2nc(N)nc(N)c2c1C`
30

Complete the entry with MFC for `Cc1c(CCc2ccccc2)ccc2nc(N)nc(N)c12`
100

Complete the entry with MFC for `CCCCCCc1ccc2nc(N)nc(N)c2c1C`
30

Complete the entry with MFC for `CCCCCCCCc1ccc2nc(N)nc(N)c2c1C`
30

---

Test system: Microsporum gypseum (14683)
Procedure Summary: Broth dilution assay, F12
Format: cell-based
Condition: Nannizzia gypsea, Table 1, Sabouraud Dextrose Broth pH 5.5, read-out: Minimum Inhibitory Concentration (S, fungistatic)
Task for the reader: assign each of the following molecules its reported MIC.
Give the value in µg/mL but do not write µg/mL after it.

Return reported MIC for target or system Microsporum gypseum (14683), item CCCCCCc1ccc2nc(N)nc(N)c2c1C [--CH2 (CH2)4 CH3] .
10

Return reported MIC for target or system Microsporum gypseum (14683), item CCCCCc1ccc2nc(N)nc(N)c2c1C [--CH2 (CH2)3 CH 3] .
30

Return reported MIC for target or system Microsporum gypseum (14683), item Cc1c(CCC(C)C)ccc2nc(N)nc(N)c12 [--CH2 CH2 CH(CH3)2] .
30

Return reported MIC for target or system Microsporum gypseum (14683), item Clc1ccc(COC(Cn2ccnc2)c2ccc(Cl)cc2Cl)c(Cl)c1 (centres unmarked) [Miconazole, reference compound] .
3

Return reported MIC for target or system Microsporum gypseum (14683), item CCCCc1ccc2nc(N)nc(N)c2c1C [--CH2 (CH2)2 CH3] .
30

---

Task for the reader: assign each of the following molecules its reported MIC.
Test system: Trichophyton mentagrophytes (11481)
Procedure Summary: Broth dilution assay, F6
Format: cell-based
Condition: Table 2, F6, Sabouraud Dextrose Broth pH 5.5, read-out: S Fungistatic
Give the value in µg/mL but do not write µg/mL after it.

Complete the entry with MIC for `CCCCCCCc1ccc2nc(N)nc(N)c2c1C`
30

Complete the entry with MIC for `CCCCCCc1ccc2nc(N)nc(N)c2c1C`
30

Complete the entry with MIC for `Cc1c(CCc2ccccc2)ccc2nc(N)nc(N)c12`
30

---

Test system: Epidermophyton floccosum (15693)
Procedure Summary: Broth dilution assay, F4
Assay type: cell-based
Condition: Table 1, F4, Sabouraud Dextrose Broth pH 5.5, read-out: Minimum Lethal Concentration (C, fungicidal)
Experimental Readout: MFC (µg/mL)
Give the value in µg/mL but do not write µg/mL after it.

Complete the entry with MFC for `Cc1c(CCC(C)C)ccc2nc(N)nc(N)c12`
10

Complete the entry with MFC for `CCCCCc1ccc2nc(N)nc(N)c2c1C`
30

Complete the entry with MFC for Cc1cccc(N(C)C(=S)Oc2ccc3ccccc3c2)c1 [Tolnaftate, reference compound]
10

Complete the entry with MFC for `CCCCc1ccc2nc(N)nc(N)c2c1C`
30

---

System: Epidermophyton floccosum (15693)
Procedure Summary: Broth dilution assay, F4
Type: cell-based
Condition: Table 2, F4, Sabouraud Dextrose Broth pH 5.5, read-out: C Fungicidal
Task for the reader: assign each of the following compounds its reported MFC.

Complete the entry with MFC for CCCCCCCCCc1ccc2nc(N)nc(N)c2c1 [R^1 = H R^2 = CH2 (CH2)7 CH3]
≤ 0.3 mg/L

Complete the entry with MFC for Clc1ccc(COC(Cn2ccnc2)c2ccc(Cl)cc2Cl)c(Cl)c1 (stereo not drawn) [Miconazole, reference compound]
≤ 0.3 mg/L

Complete the entry with MFC for Cc1cccc(N(C)C(=S)Oc2ccc3ccccc3c2)c1 [Tolnaftate, reference compound]
≤ 0.3 mg/L

---

Tested on: Microsporum gypseum (14683)
Procedure Summary: Broth dilution assay, F12
Format: cell-based
Condition: Nannizzia gypsea, Table 1, Sabouraud Dextrose Broth pH 5.5, read-out: Minimum Inhibitory Concentration (S, fungistatic)
Experimental Readout: MIC

Complete the entry with MIC for `CCCc1ccc2nc(N)nc(N)c2c1C`
> 30 µg/mL

Complete the entry with MIC for Cc1cccc(N(C)C(=S)Oc2ccc3ccccc3c2)c1 [Tolnaftate, reference compound]
≤ 0.1 µg/mL

Complete the entry with MIC for `Cc1cccc2nc(N)nc(N)c12`
> 30 µg/mL

---

Test system: Trichophyton mentagrophytes (11481)
Procedure Summary: Broth dilution assay, F6
Type: cell-based
Condition: Table 2, F6, Sabouraud Dextrose Broth pH 5.5, read-out: S Fungistatic
Experimental Readout: MIC

Complete the entry with MIC for CCCCCCCCCCc1ccc2nc(N)nc(N)c2c1C [R^1 = CH3 R^2 = --CH2 (CH2)8 CH3]
> 100 µg/mL

Complete the entry with MIC for Cc1cccc(N(C)C(=S)Oc2ccc3ccccc3c2)c1 [Tolnaftate, reference compound]
≤ 0.3 µg/mL

Complete the entry with MIC for Clc1ccc(COC(Cn2ccnc2)c2ccc(Cl)cc2Cl)c(Cl)c1 (stereo not shown) [Miconazole, reference compound]
≤ 0.3 µg/mL

Complete the entry with MIC for CCCCCCCCCc1ccc2nc(N)nc(N)c2c1 [R^1 = H R^2 = CH2 (CH2)7 CH3]
> 100 µg/mL
